# test.name: Inhibition of recombinant full-length wild type Symbiobacterium thermophilum S1PL using RBM13 as fluorogenic substrate incubated for 1 hr
pIC50: −log10 of the molar value.
readout.label: pIC50

Observe how each entry below is paired with its result.
sample.smiles	observed.measurement
CCCCCCCCCCCCCCC[C@@H](O)[C@H](COP(=O)(O)O)NCc1c(COP(=O)(O)O)cnc(C)c1O	4.33
CCCCCCCCCCCCCCC[C@H](O)[C@H](COP(=O)(O)O)N=[N+]=[N-]	4.57
CCCCCCCCCCCCC/C=C/[C@H](O)[C@@H](COP(=O)(O)O)N=[N+]=[N-]	4.86

a. CCCCCCCCCCCCC/C=C/[C@@H](O)[C@H](COP(=O)(O)O)NCc1c(COP(=O)(O)O)cnc(C)c1O
b. CCCCCCCCCCCCCCC[C@@H](O)[C@@H](COP(=O)(O)O)N=[N+]=[N-]
Q) Param metric = pIC50; output whichever of a , b has the minimum value. Reply briefly: the label of your chosen item.
A) a
(a: 4.27, b: 4.61)
